# Tgt: T1, Human CD137 ECD (human)
# T1 construct: also called human CD137 extracellular domain; recombinant human CD137
# Method description: SPR Biacore T200, 37 C, Ab captured on anti-human Fc, antigen as analyte;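 also: recombinant human CD137 flowed over antibodies held by amine-coupled anti-human Fc on a CM4 chip, run in ACES pH 7.4 buffer with 150 mM NaCl and 0.05% Tween 20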
Answer each item with its documented kon.
Respond with the bare value in M⁻¹ s⁻¹.

Look up and state reported kon for H1652L0943 (antibody, V domains shown, Dual-Ig, IgG; also called dBBDu183H1652/dBBDu072L0943) VH: QVQLVESGGGLVQPGRSLRLSCAASGFVFSNVWFHWVRQAPGKGLEWVAQIKDYYNAYADYYAPSVEGRFTISRDDSKNSIYLQMNSLKTEDTAVYYCHYVHYASASTLLPAEGVDAWGQGTTVTVSS VL: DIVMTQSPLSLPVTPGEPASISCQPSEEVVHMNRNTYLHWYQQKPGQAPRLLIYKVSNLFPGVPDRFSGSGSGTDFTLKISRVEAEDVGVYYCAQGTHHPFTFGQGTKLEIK 12900

Look up and state reported kon for H1550L0918 (antibody, V domains shown, Dual-Ig, IgG; also called H1550L918; dBBDu183H1550/dBBDu072L0918) VH: QVQLVESGGGLVQPGRSLRLSCAASGFKFSNVWMHWVRQAPGKGLEWVAQIKDKYNAYAAYYAPSVKGRFTISRDDSKNSIYLQMNSLKTEDTAVYYCHYIHYASASTLLPAFGVDAWGQGTTVTVSS VL: DIVMTQSPLSLPVTPGEPASISCQPSQEVVHMNNVVYLHWYQQKPGQAPRLLIYKVSNRFPGVPDRFSGSGSGTDFTLKISRVEAEDVGVYYCAQGTSHPFTFGQGTKLEIK 10900

Look up and state reported kon for H2591L0581 (antibody, V domains shown, Dual-Ig, IgG; also called H2591L581; dBBDu183H2591/dBBDu072L0581) VH: QVQLVESGGGLVQPGRSLRLSCAASGFKFSNVWFHWVRQAPGKGLEWVAQIKDYYNAYAGYYHPSVKGRFTISRDDSKNSIYLQMNSLKTEDTAVYYCHYVHYAAASTLLPAEGVDAWGQGTTVTVSS VL: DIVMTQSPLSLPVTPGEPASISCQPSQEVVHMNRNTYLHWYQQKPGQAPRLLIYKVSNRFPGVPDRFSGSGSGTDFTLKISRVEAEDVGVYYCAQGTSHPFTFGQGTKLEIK 20400

Numbers sourced from patent US20210388087A1.
